- Test system: Trichoderma virens ATCC 9645
- METHOD_SUMMARY: growth yield (OD600) relative to untreated control; higher = less growth inhibition
- CONDITION_CONTEXT: compound concentration: 100 uM; 72 h
Structures can show the parent of a compound that is named as a salt. About 75 (6%) of roughly 1,300 compounds showed an effect of 50% or more. Shown is part of a subset that was picked to be rich in strong results.
MEASURED_METRIC: growth yield (%)
Answer in %, number only, no unit symbol.

CC1(C)[C@@H](OC(=O)CCC(=O)O)CC[C@]2(C)[C@H]3C(=O)C=C4[C@@H]5C[C@@](C)(C(=O)O)CC[C@]5(C)CC[C@@]4(C)[C@]3(C)CC[C@@H]12 [Carbenoxolone disodium salt]
94.6
CCCOc1ccccc1-c1nc2[nH]nnc2c(=O)[nH]1
106
CC(=O)N[C@@H](CC(=O)N[C@@H](CCC(=O)O)C(=O)O)C(=O)O
99.5

With those in mind, consider the next molecule.
Enquiry: Param readout= growth yield; system= Trichoderma virens ATCC 9645; entry= CN1[C@@H]2CC[C@H]1C[C@@H](OC(c1ccccc1)c1ccccc1)C2 [Benztropine mesylate] ; returns value.
Return: 102

----------
Reported growth yield by item:
- Test system: Trichoderma virens ATCC 9645
- METHOD_SUMMARY: growth yield (OD600) relative to untreated control; higher = less growth inhibition
- CONDITION_CONTEXT: compound concentration: 100 uM; 72 h
Where a name gives a salt, the structure may show the parent alone. The whole screen tested about 1,300 compounds, of which about 75 (6%) showed an effect of 50% or more. The entries come from a sample that favours strong results as a whole.
Answer in %, number only, no unit symbol.

Clc1ccc(CSC(Cn2ccnc2)c2ccc(Cl)cc2Cl)cc1 (configuration not stated) [Sulconazole nitrate]
1.78
CC(=O)N(CC(O)CO)c1c(I)c(C(=O)NCC(O)CO)c(I)c(C(=O)NCC(O)CO)c1I (configuration not stated) [Iohexol]
106
CC/C(=C(\c1ccccc1)c1ccc(OCCN(C)C)cc1)c1ccccc1 [Tamoxifen citrate]
1.26
CCC(=O)OCC(=O)[C@@]1(OC(=O)CC)[C@H](C)C[C@H]2[C@H]3[C@H]([C@@H](O)C[C@@]21C)[C@@]1(C)C=CC(=O)C=C1C[C@H]3Cl [Alclometasone dipropionate]
97.7
CN(C)CCOC(c1ccccc1)c1ccccc1 [Diphenhydramine hydrochloride]
99.4
Cc1ccc(O)c([C@H](CCN(C(C)C)C(C)C)c2ccccc2)c1 [Tolterodine tartrate]
98
Clc1ccc(CO/N=C(\Cn2ccnc2)c2ccc(Cl)cc2Cl)c(Cl)c1 [Oxiconazole Nitrate]
0.839
C=CCN1CCCC1CNC(=O)c1cc2nn[nH]c2cc1OC (configuration not stated) [Alizapride hydrochloride]
109

Enquiry: Which measured growth yield value corresponds to CC1(C)O[C@@H]2C[C@H]3[C@@H]4C[C@H](F)C5=CC(=O)C=C[C@]5(C)[C@H]4[C@@H](O)C[C@]3(C)[C@]2(C(=O)CO)O1 [Flunisolide] ?
Return: 96.5

Enquiry: Which measured growth yield value corresponds to OCCN1C[C@H](O)[C@@H](O)[C@H](O)[C@H]1CO ?
Return: 103

Enquiry: Which measured growth yield value corresponds to CN(C)CCOC(c1ccc(Cl)cc1)c1ccccn1 (configuration not stated) [Carbinoxamine maleate salt] ?
Return: 97.8
